# Tested on: Cryptococcus neoformans
# Measurement protocol: microbe, parasite or virus in culture
# Experimental setup: ZKCC 2209, 64 h
# Description: Antifungal activity against Cryptococcus neoformans ZKCC 2209 assessed as inhibition of fungal growth incubated for 64 hrs by liquid medium dilution method
Entries and their MIC50
Reported property: MIC50

>>> result("Cc1c(CN2CCC(NCC(O)(Cn3cncn3)c3ccc(Cl)cc3)CC2)cccc1-c1ccccc1 (centres undefined)")
"0.5 µg/mL"
>>> result("Cc1c(CN2CCC(CNCC(O)(Cn3ccnc3)c3ccc(Cl)cc3Cl)CC2)cccc1-c1ccccc1 (centres undefined)")
"4 µg/mL"
>>> result("O=C(NCC(Cc1ccccc1)Cn1ccnc1)C1CCCN(Cc2ccc(-c3ccccc3)cc2)C1 (centres undefined)")
"4 µg/mL"
>>> result("Cc1c(CN2CCCC(C(=O)NCC(Cc3ccccc3)Cn3ccnc3)C2)cccc1-c1ccccc1 (centres undefined)")
"2 µg/mL"
>>> result("Cc1c(CN2CCC(CNCC(O)(Cn3ccnc3)c3ccc(Cl)cc3)CC2)cccc1-c1ccccc1 (centres undefined)")
"2 µg/mL"
>>> result("Cc1c(CN2CCCC(C(=O)NCC(O)(Cn3ccnc3)c3ccc(Cl)cc3Cl)C2)cccc1-c1ccccc1 (centres undefined)")
"≥ 8 µg/mL"
>>> result("Cc1c(CN2CCCC(C(=O)NCC(O)(Cn3cncn3)c3ccc(Cl)cc3)C2)cccc1-c1ccccc1 (centres undefined)")
"1 µg/mL"
>>> result("OC(Cn1cncn1)(Cn1cncn1)c1ccc(F)cc1F")
"2 µg/mL"
>>> result("Cc1c(CN2CCC(NCC(O)(Cn3cncn3)c3ccc(Cl)cc3Cl)CC2)cccc1-c1ccccc1 (centres undefined)")
"2 µg/mL"
